Tested on: JHH-2 (Hepatocellular Carcinoma)
measurementProtocol: combination Emax (second highest fraction inhibited in the dose matrix, 72 h); higher = more inhibition; extreme values may be limits of the assay
This listing pairs compounds with measured combination Emax.
measure: combination Emax

1. Cn1cnc2c(F)c(Nc3ccc(Br)cc3Cl)c(C(=O)NOCCO)cc21 [Selumetinib] + CCN(CCO)CCCOc1ccc2c(Nc3cc(CC(=O)Nc4cccc(F)c4)[nH]n3)ncnc2c1 [AZD2811] (first compound max 10 µM, 7x7, partner max 1 µM) :: 0.325
2. CN(CCO)CC[C@H](CSc1ccccc1)Nc1ccc(S(=O)(=O)NC(=O)c2ccc(N3CCC([C@@H](O)c4ccccc4-c4ccc(Cl)cc4)CC3)cc2)cc1S(=O)(=O)C(F)(F)F [AZD4320] + Cn1cnc2c(F)c(Nc3ccc(Br)cc3Cl)c(C(=O)NOCCO)cc21 [Selumetinib] (first compound max 1 µM, 7x7, partner max 3 µM) :: 0.452
3. COc1nnc2ccc(N3CCC(c4ccc(OCCN5CCN(C)C(=O)[C@H]5C)cc4)CC3)nn12 [AZD5153] + C=CCn1c(=O)c2cnc(Nc3ccc(N4CCN(C)CC4)cc3)nc2n1-c1cccc(C(C)(C)O)n1 [AZD1775] (first compound max 1 µM, partner max 1 µM) :: 0.553
4. Cc1c2c(nn1C)CSCc1cc(n(C)n1)CSc1cc(c3ccccc3c1)OCCCc1c(C(=O)O)n(C)c3c-2c(Cl)ccc13 [AZD5991] + CCN(CCO)CCCOc1ccc2c(Nc3cc(CC(=O)Nc4cccc(F)c4)[nH]n3)ncnc2c1 [AZD2811] (first compound max 1 µM, 7x7, partner max 1 µM) :: 0.325

---

Test system: EPLC-272H (Other Solid Carcinomas);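 also: after 72 h of two-drug dosing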
measurementProtocol: Bliss excess, mean over the matrix (fraction); higher = more synergy
measure: Bliss excess

1. C[C@@H]1COCCN1c1cc(C2([S@](C)(=N)=O)CC2)nc(-c2ccnc3[nH]ccc23)n1 [AZD6738] + O=C(c1cc(Cc2n[nH]c(=O)c3ccccc23)ccc1F)N1CCN(C(=O)C2CC2)CC1 [Olaparib] (first compound max 10 µM, 7x7, partner max 10 µM) :: -0.0682
2. COc1cccc(OCCCN)c1-c1cc(Nc2cnc(C#N)cn2)n[nH]1 [Prexasertib] + Cc1cc2ncnn2cc1Nc1ncc2c(n1)n(C1CCOCC1)c(=O)n2C [AZD7648] (first compound max 1 µM, 7x7, partner max 10 µM) :: -0.0481
3. NC1(C(=O)N[C@@H](CCO)c2ccc(Cl)cc2)CCN(c2ncnc3[nH]ccc23)CC1 [Capivasertib] + COc1nnc2ccc(N3CCC(c4ccc(OCCN5CCN(C)C(=O)[C@H]5C)cc4)CC3)nn12 [AZD5153] (first compound max 10 µM, 7x7, partner max 1 µM) :: -0.0025
4. Cc1cc2ncnn2cc1Nc1ncc2c(n1)n(C1CCOCC1)c(=O)n2C [AZD7648] + C=CCn1c(=O)c2cnc(Nc3ccc(N4CCN(C)CC4)cc3)nc2n1-c1cccc(C(C)(C)O)n1 [AZD1775] (first compound max 10 µM, partner max 1 µM) :: 0.0042
5. CC1(C)CCC(CN2CCN(c3ccc(C(=O)NS(=O)(=O)c4ccc(NCC5CCOCC5)c([N+](=O)[O-])c4)c(Oc4cnc5[nH]ccc5c4)c3)CC2)=C(c2ccc(Cl)cc2)C1 [Venetoclax] + CN(C)CCCOc1ccc(-c2ccc3ncc4c(c3c2)n(C2CCOCC2)c(=O)n4C)cn1 [AZD0156] (first compound max 1 µM, 7x7, partner max 1 µM) :: -0.0501
6. Cc1c2c(nn1C)CSCc1cc(n(C)n1)CSc1cc(c3ccccc3c1)OCCCc1c(C(=O)O)n(C)c3c-2c(Cl)ccc13 [AZD5991] + C[C@@H](Nc1cc(F)cc(F)c1)c1cc(C(=O)N(C)C)cc2c(=O)cc(N3CCOCC3)oc12 [AZD8186] (first compound max 1 µM, 7x7, partner max 3 µM) :: 0.0238
7. CCc1c2c(nc3ccc(O)cc13)-c1cc3c(c(=O)n1C2)COC(=O)[C@]3(O)CC [SN-38] + O=C(c1cc(Cc2n[nH]c(=O)c3ccccc23)ccc1F)N1CCN(C(=O)C2CC2)CC1 [Olaparib] (first compound max 0.3 µM, 7x7, partner max 10 µM) :: 0.071
